Entries and their growth inhibition
- Assay info: NCI Yeast Anticancer Drug Screen. Data for the rad50 strain (AID 155);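 note: 0% = growth of vehicle-only cultures of the same strain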
- Experimental parameters: S. cerevisiae rad50 strain growth inhibition; at 50.0 µM; stronger effect = higher value
About 79,000 compounds went through this panel and 15% of them were active in at least one assay; those are over-represented in the sample as a whole.
Lab book: enter the figure in %, no units written.

Cc1cc2ccc(OC(=O)c3ccc(N=C(N)N)cc3)cc2oc1=O	-8.95
CN1C(CC(=O)c2ccccc2)CCCC1CC(O)c1ccccc1 (stereo not given)	13.9
COc1ccc2cc(C(C)C(O)c3cc(F)c(F)c(F)c3F)ccc2c1 (stereo not given)	-21.1
CC(C)=CCCC(C)(OC1OC(COC2OCC(O)C(O)C2O)C(O)C(O)C1O)C1CCC2(C)C1C(O)CC1C3(C)CCC(OC4OC(CO)C(O)C(O)C4OC4OC(CO)C(O)C(O)C4O)C(C)(C)C3CCC12C (stereo not given)	-15.8

Kindly consider the entry below.
[Q] Could you tell me which growth inhibition is on file for OC(C1CCCCCCCCCC1)C(O)C1CCCCCCCCCC1 (stereo not given) ?
[A] -35.5

---

- Assay info: NCI Yeast Anticancer Drug Screen. Data for the mec2-1 strain (AID 157)
- Experimental parameters: S. cerevisiae mec2-1 strain, at 50.0 µM, stronger effect = higher value
About 79,000 compounds went through this panel and 15% of them were active in at least one assay; those are over-represented in the sample as a whole. Activity calls are given as the source filed them. Rule as the data show it: active = growth inhibition above about 70%; inactive = the rest.
Entries and their growth inhibition

# count of solved cases: 4
COc1cc(CC2C(=O)OCC2C2(c3ccc4c(c3)OCO4)SCCCS2)cc(OC)c1OC (stereo not given)	8.3% (inactive)
CCCCCCCCCCCCCCCCn1cnc2c(Cl)ncnc21	3.9% (inactive)
Nc1cccc2c1C(=O)c1cccc(Nc3ccc4c(c3)C(=O)c3ccccc3C4=O)c1C2=O	-2.7% (inactive)
CCOC1(OCC)C2(Cl)C(Cl)=C(Cl)C1(Cl)C1CCCC12 (stereo not given)	3.75% (inactive)

[Q] Could you tell me which growth inhibition is on file for COC(=O)C1C(C)(C(=O)OC)N=NC1(c1ccccc1)c1ccccc1 (stereo not given) ?
[A] -1.05% (inactive)

---

- Assay info: NCI Yeast Anticancer Drug Screen. Data for the sgs1 mgt1 strain (AID 161);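 note: 0% = growth of cultures given vehicle only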
- Experimental parameters: S. cerevisiae sgs1 mgt1 strain, at 50.0 µM, stronger effect = higher value
This is part of a sample that, as a whole, favours compounds with a hit. Of some 79,000 tested, about 15% had one in any assay.
Entries and their growth inhibition
Lab book: enter the figure in %, no units written.

# count of solved cases: 8
CC(=O)C1(C)SC(N(c2ccccc2)c2ccccc2)=NC1=O (stereo not given)	-4.05
Cc1ccc(C2(C)CC/C(=N/N=C3/CCC(C)(c4ccc(C)c(C)c4)c4cc(C)c(C)cc43)c3cc(C)c(C)cc32)cc1C (stereo not given)	-27.9
O=C(O)C(CCl)c1ccccc1 (stereo not given)	0.4
CCOC(=O)CCC[n+]1cccc(C#N)c1	2
CC(=O)OCC1OC(n2c(C)c(C(C)=O)c(-c3cccc4ccccc34)c(C#N)c2=S)C(OC(C)=O)C(OC(C)=O)C1OC(C)=O (stereo not given)	48
CC(C)CCC(C)c1ccncc1 (stereo not given)	-7.05
O=C1/C(=C/c2ccccc2)Oc2cc(O)ccc21	33
Cc1nc2nc[nH]n2c1N=Nc1ccccc1	-9.5

[Q] Could you tell me which growth inhibition is on file for CCCCC(C)C(=O)CC(SCC)c1ccc(Cl)c(Cl)c1 (stereo not given) ?
[A] 17.3

[Q] Further, for OC(CBr)c1cc(-c2ccccc2)nc2c(Cl)cc(Cl)cc12 (stereo not given) ?
[A] 33.6

[Q] Further, for C#CC(CCC)NC(C)(C)C (stereo not given) ?
[A] 7.35

[Q] Further, for "O=C1c2ccc3ccccc3c2C(=O)c2ccc3ccccc3c21" ?
[A] -3.65

[Q] Further, for "CC(C)[C@@H]1CC[C@@H](C)C[C@H]1OC(=O)c1c2n(c3ccccc13)C[C@H]1OC(C)(C)O[C@@H]21" ?
[A] 7.4

[Q] Further, for "CCCC#CCN(CCCC)CCCC" ?
[A] -3.8

[Q] Further, for "O=C1OC(=O)C(Cl)=C1Cl" ?
[A] 28.8

[Q] Further, for C[N+](C)(C)C(Cc1c[nH]c(=S)[nH]1)C(=O)O (stereo not given) ?
[A] -31.1

[Q] Further, for "COc1ccc(OC)c(C2=CCCCCC2)c1" ?
[A] 3.1

[Q] Further, for "FC(F)(F)c1ccc(C=NC23CC4CC(CC(C4)C2)C3)cc1" ?
[A] -16.2

---

- Assay info: NCI Yeast Anticancer Drug Screen. Data for the sgs1 mgt1 strain (AID 161);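 note: 0% = growth of cultures given vehicle only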
- Experimental parameters: S. cerevisiae sgs1 mgt1 strain, at 50.0 µM, stronger effect = higher value
This is part of a sample that, as a whole, favours compounds with a hit. Of some 79,000 tested, about 15% had one in any assay.
Endpoint name: growth inhibition (%)
Lab book: enter the figure in %, no units written.

# count of solved cases: 10
O=CCC(=O)c1ccc(Br)cc1	2.3
CN(C)Cc1cc(CN(C)C)cc(CN(C)C)c1	3.45
N#CC1=C(S)N(C2OC(CO)C(O)C(O)C2O)C(c2ccccc2)=CC1c1ccco1 (stereo not drawn)	4.85
COc1cc2c(cc1OC)C[N+]1(C)CCc3cc(OC)c(OC)cc3C1C2 (stereo not drawn)	-9.9
COc1ccc2[nH]c(-c3cccc(N(C)C)c3)cc(=O)c2c1	-12.5
Cc1ccc([N+](=O)[O-])cc1NC(=O)NCCO	-6.3
CC(C)(C)c1ccc(C(C)(C)C)c(=O)[nH]1	-12.3
CCCCCCCCCCCCCC/C=N/Nc1ccc([N+](=O)[O-])cc1[N+](=O)[O-]	13.5
Cc1ccc(F)c([N+](=O)[O-])c1	-10.5
COC(=O)C(C(=O)C(N)=O)c1csc(-n2nc(-c3ccccc3)cc2-c2ccccc2)n1 (stereo not drawn)	-13.8

[Q] Could you tell me which growth inhibition is on file for "NC(=O)N/N=C/c1ccccc1N" ?
[A] 0.95

[Q] Further, for COc1cc(C2[C@H]3C(=O)N(c4ccc(Cc5ccc(N6C(=O)[C@@H]7ON(c8ccccc8)C(c8cc(OC)c(OC)c(OC)c8)[C@@H]7C6=O)cc5)cc4)C(=O)[C@H]3ON2c2ccccc2)cc(OC)c1OC (stereo partly drawn) ?
[A] 3.75

[Q] Further, for "C=CCNC(=O)CC(C)(C)C" ?
[A] 0.35

[Q] Further, for O=C1CC(C(=O)O)Cc2c(Br)ccc(O)c21 (stereo not drawn) ?
[A] -22.5

[Q] Further, for "CCOC(=O)c1c[nH]c2cc(Cl)ccc2c1=O" ?
[A] 9.65

[Q] Further, for "O/N=C/c1ncccc1C1OCCO1" ?
[A] -2.35

[Q] Further, for "O=C(N=c1ccc2nc(=O)[nH]n(O)c-2c1)C(F)(F)F" ?
[A] -13.4

[Q] Further, for "CCCN(CCC)S(=O)(=O)c1ccc(NC(=O)Oc2ccccc2OC)cc1" ?
[A] 31.8

[Q] Further, for "COc1ccc(/C=N/N2CCN(/N=C/c3ccc(OC)c(O)c3)CC2)cc1O" ?
[A] 15.1

[Q] Further, for CC1(C)COC(c2ccc(C(F)(F)F)cc2C(O)c2ccc3ccccc3c2)=N1 (stereo not drawn) ?
[A] 3.8

[Q] Further, for O=C1OCC2C(=O)N3Cc4cc5ccccc5nc4C3CC12 (stereo not drawn) ?
[A] -2.5

[Q] Further, for CCOC(=O)C1C(=O)CC(C)(O)C(C(=O)OCC)C1c1ccc(N(C)C)cc1 (stereo not drawn) ?
[A] -3.6

[Q] Further, for "COC(=O)C1(C(=O)OC)C/C(C)=C(/C)SCCCS1" ?
[A] -14.8

---

Entries and their growth inhibition
- Assay info: NCI Yeast Anticancer Drug Screen. Data for the cln2 rad14 strain (AID 165);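 note: 0% = growth equal to vehicle treated cultures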
- Experimental parameters: S. cerevisiae cln2 rad14 strain, at 50.0 µM, stronger effect = higher value
This is part of a sample that, as a whole, favours compounds with a hit. Of some 79,000 tested, about 15% had one in any assay.
Lab book: enter the figure in %, no units written.

CCOC(=O)/C=C\SCCC(=O)O	25.9
c1ccc(-c2nc3n(n2)CCC(c2ccccc2)S3)cc1 (stereo unspecified)	3.9
OC1(c2ccc(-c3ccccc3)cc2)c2ccccc2-c2ccccc2C1(O)c1ccc(-c2ccccc2)cc1 (stereo unspecified)	2
N#CC1=C(S)N(C2OC(CO)C(O)C(O)C2O)C(c2ccccc2)=CC1c1ccco1 (stereo unspecified)	-12.4
NC(=S)N/N=C/c1cccc(CC(O)(C(F)(F)F)C(F)(F)F)n1	-28.4

[Q] Could you tell me which growth inhibition is on file for "c1ccc(-c2c(-c3cccs3)[nH]c(-c3cccs3)c2-c2ccccn2)nc1" ?
[A] -29.4

[Q] Further, for "N#C/C(=C\c1ccccc1)c1ccc(F)cc1F" ?
[A] 6.55

[Q] Further, for "S=c1[nH]c(=S)c2[nH]cnc2[nH]1" ?
[A] -7.35

Hello, the source for this data is PubChem BioAssay (NCI), in case you need it.
